Reported protein stability index values are given for each entry in this list.
B1: COX4I1 (parent)
chain: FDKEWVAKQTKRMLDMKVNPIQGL

# Variants of: B1
# assay.comment: protein stability index of a GFP-peptide fusion (GPS, HEK-293T) (PSI 1-6); higher = more stable;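 note: lentivirally expressed fusions sorted by FACS into six bins by GFP to DsRed ratio, PSI derived from sequencing read proportions per bin multiplied by bin number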
# condition.info: c terminus: a fixed tail appended
Just the number, please, no unit after it.

mutation.notation: L24V
recorded.value: 1.91
--
mutation.notation: K11L
recorded.value: 1.61

Qu. Dear colleague, I am looking for the recorded protein stability index of the following variant: `T10D`
Ans. 1.82

Qu. Dear colleague, I am looking for the recorded protein stability index of the following variant: `I21D`
Ans. 1.93

Qu. Dear colleague, I am looking for the recorded protein stability index of the following variant: `K17R`
Ans. 1.95

Qu. Dear colleague, I am looking for the recorded protein stability index of the following variant: `K3W`
Ans. 1.29

Qu. Dear colleague, I am looking for the recorded protein stability index of the following variant: `K11D`
Ans. 1.54

Qu. Dear colleague, I am looking for the recorded protein stability index of the following variant: `A7M`
Ans. 1.81

Qu. Dear colleague, I am looking for the recorded protein stability index of the following variant: `Q22D`
Ans. 2.31

Qu. Dear colleague, I am looking for the recorded protein stability index of the following variant: `L14A`
Ans. 2.35

Qu. Dear colleague, I am looking for the recorded protein stability index of the following variant: `G23M`
Ans. 1.76
